- tested system: human ANO1 channel (isoform acd) (Homo sapiens, UniProt Q5XXA6)
- Construct: host or cells: HEK293T
- Sequence (Q5XXA6 1-986): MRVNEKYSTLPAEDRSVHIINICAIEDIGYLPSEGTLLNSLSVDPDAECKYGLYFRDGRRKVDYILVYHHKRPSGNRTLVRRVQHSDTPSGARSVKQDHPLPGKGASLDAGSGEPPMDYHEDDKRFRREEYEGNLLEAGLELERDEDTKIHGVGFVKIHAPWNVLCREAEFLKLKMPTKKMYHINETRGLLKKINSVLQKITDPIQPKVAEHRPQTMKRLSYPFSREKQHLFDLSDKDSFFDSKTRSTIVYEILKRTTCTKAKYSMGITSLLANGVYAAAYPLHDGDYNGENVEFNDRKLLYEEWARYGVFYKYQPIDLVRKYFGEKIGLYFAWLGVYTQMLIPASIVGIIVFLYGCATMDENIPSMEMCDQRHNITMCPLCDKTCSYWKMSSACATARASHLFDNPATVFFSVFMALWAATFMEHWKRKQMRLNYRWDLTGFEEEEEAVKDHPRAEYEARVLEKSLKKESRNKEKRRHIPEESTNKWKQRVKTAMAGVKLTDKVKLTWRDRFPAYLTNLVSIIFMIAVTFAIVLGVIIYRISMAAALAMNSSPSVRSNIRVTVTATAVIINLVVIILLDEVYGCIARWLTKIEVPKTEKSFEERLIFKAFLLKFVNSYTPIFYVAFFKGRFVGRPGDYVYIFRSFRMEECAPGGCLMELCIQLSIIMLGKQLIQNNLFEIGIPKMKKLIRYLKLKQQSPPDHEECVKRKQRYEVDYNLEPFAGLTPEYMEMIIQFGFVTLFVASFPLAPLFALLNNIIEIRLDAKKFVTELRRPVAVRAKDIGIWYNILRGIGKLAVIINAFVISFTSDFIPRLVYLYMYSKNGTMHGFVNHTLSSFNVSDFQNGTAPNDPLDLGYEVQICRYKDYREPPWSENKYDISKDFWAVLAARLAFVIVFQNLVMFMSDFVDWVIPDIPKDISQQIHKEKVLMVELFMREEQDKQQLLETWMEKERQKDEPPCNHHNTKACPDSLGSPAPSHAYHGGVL
- measurement description: QPatch-48 automated whole-cell electrophysiology, cumulative five-concentration single-addition protocol
- Assay type: cell-based
- conditions used: independent experiment 4; read-out: IC50s for independent experiments 4
assay readout: pIC50
Answers are plain numbers, as −log10 of the molar value.

Answered examples (3):
CCc1oc2ccccc2c1C(=O)c1cc(Br)c(O)c(Br)c1 ... 5.64
O=C(O)c1cccnc1Nc1cccc(C(F)(F)F)c1 ... 4.95
O=C(Nc1ccc([N+](=O)[O-])cc1Cl)c1cc(Cl)ccc1O [Niclosamide] ... 5.68

Here is the next item to consider.
-- ask Return value of pIC50 for input N#Cc1c(C(F)(F)F)cc(O)n2c1nc1ccccc12 , no commentary.
-- reply 5.80

###

- tested system: human ANO1 channel (isoform acd) (Homo sapiens, UniProt Q5XXA6)
- Construct: host or cells: HEK293T
- Sequence (Q5XXA6 1-986): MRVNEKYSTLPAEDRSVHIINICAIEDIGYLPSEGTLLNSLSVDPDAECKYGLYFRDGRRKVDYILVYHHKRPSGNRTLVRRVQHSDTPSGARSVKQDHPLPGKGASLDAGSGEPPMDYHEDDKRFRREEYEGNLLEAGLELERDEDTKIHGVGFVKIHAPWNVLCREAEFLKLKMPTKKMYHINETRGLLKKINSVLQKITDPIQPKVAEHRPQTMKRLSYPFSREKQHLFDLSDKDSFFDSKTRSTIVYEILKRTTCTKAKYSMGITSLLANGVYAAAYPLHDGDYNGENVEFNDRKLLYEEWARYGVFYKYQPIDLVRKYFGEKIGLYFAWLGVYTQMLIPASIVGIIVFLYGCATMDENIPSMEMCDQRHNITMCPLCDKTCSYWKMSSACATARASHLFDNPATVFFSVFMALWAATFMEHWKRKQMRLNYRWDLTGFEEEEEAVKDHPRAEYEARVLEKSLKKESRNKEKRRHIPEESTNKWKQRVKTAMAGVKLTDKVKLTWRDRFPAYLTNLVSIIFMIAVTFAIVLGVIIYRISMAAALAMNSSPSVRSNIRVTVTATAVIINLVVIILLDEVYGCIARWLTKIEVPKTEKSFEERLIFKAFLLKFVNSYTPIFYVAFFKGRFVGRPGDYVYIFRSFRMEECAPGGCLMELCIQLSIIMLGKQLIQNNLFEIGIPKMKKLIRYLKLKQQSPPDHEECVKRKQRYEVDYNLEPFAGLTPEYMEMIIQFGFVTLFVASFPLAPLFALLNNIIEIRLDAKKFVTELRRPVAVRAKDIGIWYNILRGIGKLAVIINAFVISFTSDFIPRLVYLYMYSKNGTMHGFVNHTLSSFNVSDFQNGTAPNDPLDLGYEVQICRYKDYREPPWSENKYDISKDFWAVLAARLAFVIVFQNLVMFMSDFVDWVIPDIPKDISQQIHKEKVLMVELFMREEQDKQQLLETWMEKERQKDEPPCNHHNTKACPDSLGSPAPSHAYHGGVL
- measurement description: QPatch-48 single-concentration/multiple-addition (extended incubation) protocol
- Type: cell-based
- conditions used: single concentration, multiple additions; Fig. 6 curve; read-out: IC50, modified single-concentration assay
- Protocol: As mentioned, due to the nature of the channel and its rundown issues, time limitations exist for recording. Therefore, each concentration of compound is added to the cell for a duration of 60 s. It is possible that the IC50 is shifted for those compounds that require a longer time to act on the channel. To account for this, a single-concentration/multiple-addition protocol was established (Fig. 6). […]
assay readout: pIC50
Answers are plain numbers, as −log10 of the molar value.

-- ask Return value of pIC50 for input O=C(Nc1ccc([N+](=O)[O-])cc1Cl)c1cc(Cl)ccc1O [Niclosamide] , no commentary.
-- reply 6.45

Ref: paper PMC7268545
